- Test system: Pasteurella multocida 17E
- assay.remarks: conventional broth-dilution microtiter test, MIC
- Format: cell-based
- measurement.conditions: bovine isolate
measurement.name: MIC (minimal inhibitory concentration)

compound	study.target	measurement.name	reported.value
CCC1OC(=O)CC(O)C(C)C(OC2OC(C)C(OC3CC(C)(O)C(OC(=O)Cc4ccccc4)C(C)O3)C(N(C)C)C2OC(C)=O)C(CC=O)CC(C)C(=O)C=CC(C)=CC1C (stereo not shown)	Pasteurella multocida 17E	MIC (minimal inhibitory concentration)	50
CCC(=O)OC1CC(=O)OC(CC)C(CO)C=C(C)C=CC(=O)C(C)CC(CC=O)C(OC2OC(C)C(OC3CC(C)(O)C(OC(=O)CC)C(C)O3)C(N(C)C)C2O)C1C (stereo not shown)	Pasteurella multocida 17E	MIC (minimal inhibitory concentration)	25
CCC1OC(=O)CC(O)C(C)C(OC2OC(C)C(OC3CC(C)(O)C(OC(=O)Cc4ccccc4)C(C)O3)C(N(C)C)C2O)C(CC=O)CC(C)C(=O)C=CC(C)=CC1C (stereo not shown)	Pasteurella multocida 17E	MIC (minimal inhibitory concentration)	> 50
CCC(=O)OCC1C=C(C)C=CC(=O)C(C)CC(CC=O)C(OC2OC(C)C(OC3CC(C)(O)C(OC(=O)CC)C(C)O3)C(N(C)C)C2OC(C)=O)C(C)C(OC(=O)CC)CC(=O)OC1CC (stereo not shown)	Pasteurella multocida 17E	MIC (minimal inhibitory concentration)	> 50
CCC(=O)OC1CC(=O)OC(CC)C(COC(=O)C(Cl)(Cl)Cl)C=C(C)C=CC(=O)C(C)CC(CC=O)C(OC2OC(C)C(OC3CC(C)(O)C(OC(=O)CC)C(C)O3)C(N(C)C)C2OC(C)=O)C1C (stereo not shown)	Pasteurella multocida 17E	MIC (minimal inhibitory concentration)	50
CCC1OC(=O)CC(O)C(C)C(OC2OC(C)C(OC3CC(C)(O)C(OC(=O)Cc4ccccc4)C(C)O3)C(N(C)C)C2O)C(CC=O)CC(C)C(=O)C=CC(C)=CC1COC(=O)Cc1ccccc1 (stereo not shown)	Pasteurella multocida 17E	MIC (minimal inhibitory concentration)	50
CCC(=O)OC1C(C)OC(OC2C(C)OC(OC3C(CC=O)CC(C)C(=O)C=CC(C)=CC(C)C(CC)OC(=O)CC(O)C3C)C(OC(C)=O)C2N(C)C)CC1(C)O (stereo not shown)	Pasteurella multocida 17E	MIC (minimal inhibitory concentration)	25
